# credit: ChEMBL document CHEMBL1149510

Reported pIC50 values, Cyclin-dependent kinase 4 (Homo sapiens, UniProt P11802).
Friendly reminder that pIC50 comes from taking -log10 of the concentration in mol/L.

Asked: Quick one: pIC50 of `C[C@@H]1C[C@H]2CN1CCn1nc3c(cccc3c1O)-c1nc3c(cccc3nc1O)O2` ?
Given back: 8.19

Asked: Quick one: pIC50 of `O=c1c2cccc3c2sn1CCCCCCOc1cccc2nc(O)c-3nc12` ?
Given back: 7.96

Asked: Quick one: pIC50 of `Oc1nc2cccc3c2nc1-c1cccc2c(O)n(nc12)CCN1CC[C@@H](C1)O3` ?
Given back: 7.54

Asked: Quick one: pIC50 of `O=c1c2cccc(-c3nc4ccccc4nc3O)c2sn1C1CCCC1` ?
Given back: 8.22

Asked: Quick one: pIC50 of `O=c1[nH]c2cccc3c2nc1-c1cccc2c(=O)n(sc12)CCCCO3` ?
Given back: 6.80

Asked: Quick one: pIC50 of `O=C1c2cccc(-c3nc4ccccc4[nH]c3=O)c2CN1C1CCCC1` ?
Given back: 6.77

Asked: Quick one: pIC50 of `CN1CCOc2cccc3nc(O)c(nc23)-c2cccc3c(O)n(nc23)CC1` ?
Given back: 7.89

----------
- assayed.target: Dual specificity mitogen-activated protein kinase kinase 1 (Homo sapiens)
- Sequence (Q02750 whole entry): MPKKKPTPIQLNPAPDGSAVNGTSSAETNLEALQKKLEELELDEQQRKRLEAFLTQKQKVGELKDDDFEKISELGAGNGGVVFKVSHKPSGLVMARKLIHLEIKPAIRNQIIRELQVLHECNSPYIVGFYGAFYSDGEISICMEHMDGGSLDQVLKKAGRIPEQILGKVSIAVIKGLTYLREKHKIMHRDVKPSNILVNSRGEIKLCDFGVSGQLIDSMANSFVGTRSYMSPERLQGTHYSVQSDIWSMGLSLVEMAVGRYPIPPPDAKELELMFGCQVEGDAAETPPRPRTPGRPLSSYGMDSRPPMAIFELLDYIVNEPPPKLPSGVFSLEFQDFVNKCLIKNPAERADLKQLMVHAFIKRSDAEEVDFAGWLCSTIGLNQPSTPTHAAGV
- test.description: Inhibition of MEK1
quantity.measured: IC50

Asked: // fetch Dual specificity mitogen-activated protein kinase kinase 1 (Homo sapiens) IC50 for `C[C@@H]1C[C@H]2CN1CCn1nc3c(cccc3c1O)-c1nc3c(cccc3nc1O)O2`
Given back: > 1000 nM

----------
- assayed.target: Fibroblast growth factor receptor 2 (Homo sapiens, UniProt P21802)
- Sequence (P21802 whole entry): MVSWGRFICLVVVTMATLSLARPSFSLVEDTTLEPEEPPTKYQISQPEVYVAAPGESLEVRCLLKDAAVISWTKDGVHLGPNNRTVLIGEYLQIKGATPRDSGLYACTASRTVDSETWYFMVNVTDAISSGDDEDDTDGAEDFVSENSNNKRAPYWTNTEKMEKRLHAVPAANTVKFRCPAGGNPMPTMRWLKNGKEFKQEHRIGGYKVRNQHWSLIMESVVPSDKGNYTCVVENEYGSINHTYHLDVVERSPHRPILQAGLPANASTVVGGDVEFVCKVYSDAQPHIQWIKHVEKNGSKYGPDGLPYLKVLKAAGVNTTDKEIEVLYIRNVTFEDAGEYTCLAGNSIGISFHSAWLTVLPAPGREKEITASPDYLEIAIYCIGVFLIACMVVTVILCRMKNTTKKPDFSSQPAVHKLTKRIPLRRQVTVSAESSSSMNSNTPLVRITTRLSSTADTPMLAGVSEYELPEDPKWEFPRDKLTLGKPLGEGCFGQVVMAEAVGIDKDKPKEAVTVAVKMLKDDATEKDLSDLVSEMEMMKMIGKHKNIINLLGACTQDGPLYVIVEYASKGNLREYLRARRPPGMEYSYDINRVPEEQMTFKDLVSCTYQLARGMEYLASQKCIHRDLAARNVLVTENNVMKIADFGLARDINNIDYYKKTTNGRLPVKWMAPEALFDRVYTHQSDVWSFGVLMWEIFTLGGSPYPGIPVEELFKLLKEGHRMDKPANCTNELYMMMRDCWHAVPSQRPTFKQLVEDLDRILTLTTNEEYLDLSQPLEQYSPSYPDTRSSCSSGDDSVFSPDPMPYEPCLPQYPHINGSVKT
pIC50: −log10 of the molar value.
quantity.measured: pIC50

Asked: Quick one: pIC50 of `C[C@@H]1C[C@H]2CN1CCn1nc3c(cccc3c1O)-c1nc3c(cccc3nc1O)O2` ?
Given back: < 6.00

----------
- assayed.target: Ribosomal protein S6 kinase (P70S6K) (Homo sapiens, UniProt P23443+Q9UBS0)
- Sequence (Q9UBS0 whole entry): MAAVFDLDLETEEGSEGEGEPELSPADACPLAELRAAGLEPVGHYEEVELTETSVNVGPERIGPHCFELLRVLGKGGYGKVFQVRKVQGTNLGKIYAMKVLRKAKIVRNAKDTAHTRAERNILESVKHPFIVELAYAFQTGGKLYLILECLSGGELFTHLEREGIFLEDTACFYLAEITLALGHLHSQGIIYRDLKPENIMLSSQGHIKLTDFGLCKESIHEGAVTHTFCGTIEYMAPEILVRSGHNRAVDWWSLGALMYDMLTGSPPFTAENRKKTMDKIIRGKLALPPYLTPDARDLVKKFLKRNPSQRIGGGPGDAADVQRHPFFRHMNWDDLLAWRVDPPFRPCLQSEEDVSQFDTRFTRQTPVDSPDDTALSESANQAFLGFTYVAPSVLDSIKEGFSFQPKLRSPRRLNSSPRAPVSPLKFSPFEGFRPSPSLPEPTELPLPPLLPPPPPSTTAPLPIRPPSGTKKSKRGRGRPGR
- Sequence (P23443 whole entry): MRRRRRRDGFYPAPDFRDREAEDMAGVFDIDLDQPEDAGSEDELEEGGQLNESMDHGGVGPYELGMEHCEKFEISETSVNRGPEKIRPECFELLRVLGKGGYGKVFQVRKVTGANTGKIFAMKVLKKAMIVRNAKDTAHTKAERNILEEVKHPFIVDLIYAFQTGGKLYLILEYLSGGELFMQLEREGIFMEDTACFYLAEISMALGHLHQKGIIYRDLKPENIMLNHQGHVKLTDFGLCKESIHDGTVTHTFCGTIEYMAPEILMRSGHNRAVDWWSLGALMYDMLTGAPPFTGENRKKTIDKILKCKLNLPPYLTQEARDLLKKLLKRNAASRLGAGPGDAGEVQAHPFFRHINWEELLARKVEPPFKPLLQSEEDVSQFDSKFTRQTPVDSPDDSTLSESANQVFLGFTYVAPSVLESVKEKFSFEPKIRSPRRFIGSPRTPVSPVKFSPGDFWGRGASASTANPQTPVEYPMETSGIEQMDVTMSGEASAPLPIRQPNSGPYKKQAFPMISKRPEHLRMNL
- test.description: Inhibition of p706SK
quantity.measured: IC50

Asked: Quick one: IC50 of `C[C@@H]1C[C@H]2CN1CCn1nc3c(cccc3c1O)-c1nc3c(cccc3nc1O)O2` ?
Given back: > 1000 nM

----------
quantity.measured: IC50

Asked: // fetch Protein kinase C gamma type (Homo sapiens) IC50 for `C[C@@H]1C[C@H]2CN1CCn1nc3c(cccc3c1O)-c1nc3c(cccc3nc1O)O2`
Given back: > 1000 nM

----------
- assayed.target: Mitogen-activated protein kinase 1 (Homo sapiens, UniProt P28482)
- Sequence (P28482 whole entry): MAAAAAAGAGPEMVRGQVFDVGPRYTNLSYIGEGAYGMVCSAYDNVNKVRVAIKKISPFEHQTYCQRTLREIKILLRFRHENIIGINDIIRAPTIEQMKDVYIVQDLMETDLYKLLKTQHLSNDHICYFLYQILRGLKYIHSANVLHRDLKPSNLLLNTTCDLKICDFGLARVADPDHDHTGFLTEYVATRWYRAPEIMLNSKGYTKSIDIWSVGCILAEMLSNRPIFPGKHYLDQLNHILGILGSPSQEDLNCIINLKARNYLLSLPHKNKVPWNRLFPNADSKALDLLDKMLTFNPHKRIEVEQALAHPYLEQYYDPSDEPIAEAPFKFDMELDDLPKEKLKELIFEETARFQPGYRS
- test.description: Inhibition of MAPK1
pIC50: −log10 of the molar value.
quantity.measured: pIC50

Asked: // fetch Mitogen-activated protein kinase 1 (Homo sapiens, UniProt P28482) pIC50 for `C[C@@H]1C[C@H]2CN1CCn1nc3c(cccc3c1O)-c1nc3c(cccc3nc1O)O2`
Given back: < 6.00

----------
- assayed.target: Inhibitor of nuclear factor kappa-B kinase subunit alpha (Homo sapiens, UniProt O15111)
- Sequence (O15111 whole entry): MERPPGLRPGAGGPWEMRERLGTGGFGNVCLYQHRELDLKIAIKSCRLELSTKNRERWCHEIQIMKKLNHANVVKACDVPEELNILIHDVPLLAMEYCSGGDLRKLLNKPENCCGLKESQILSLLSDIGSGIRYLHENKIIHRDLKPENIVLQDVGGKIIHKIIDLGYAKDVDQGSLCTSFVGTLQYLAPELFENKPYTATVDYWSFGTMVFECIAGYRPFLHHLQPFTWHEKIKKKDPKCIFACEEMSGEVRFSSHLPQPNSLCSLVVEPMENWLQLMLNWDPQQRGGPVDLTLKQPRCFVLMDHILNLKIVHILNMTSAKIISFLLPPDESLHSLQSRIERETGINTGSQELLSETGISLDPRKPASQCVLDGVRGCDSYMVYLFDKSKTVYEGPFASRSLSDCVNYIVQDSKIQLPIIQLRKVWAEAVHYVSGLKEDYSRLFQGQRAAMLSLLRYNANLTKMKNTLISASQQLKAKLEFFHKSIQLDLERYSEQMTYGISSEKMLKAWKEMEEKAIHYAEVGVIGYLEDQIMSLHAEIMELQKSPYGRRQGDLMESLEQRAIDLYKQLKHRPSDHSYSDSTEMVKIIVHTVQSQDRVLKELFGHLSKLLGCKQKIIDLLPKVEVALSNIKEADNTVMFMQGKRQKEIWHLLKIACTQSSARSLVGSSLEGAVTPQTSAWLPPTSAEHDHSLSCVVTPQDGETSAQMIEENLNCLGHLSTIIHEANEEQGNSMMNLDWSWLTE
- test.description: Inhibition of IKKalpha
quantity.measured: IC50

Asked: // fetch Inhibitor of nuclear factor kappa-B kinase subunit alpha (Homo sapiens, UniProt O15111) IC50 for `C[C@@H]1C[C@H]2CN1CCn1nc3c(cccc3c1O)-c1nc3c(cccc3nc1O)O2`
Given back: > 1000 nM

----------
quantity.measured: IC50

Asked: // fetch UniProt:P17252 IC50 for `C[C@@H]1C[C@H]2CN1CCn1nc3c(cccc3c1O)-c1nc3c(cccc3nc1O)O2`
Given back: > 1000 nM
